# System: HIV-1 (HXB2)
# Method Description: Plaque reduction assay in CD4+ HeLa cells of serially passaged virus
# Assay type: cell-based
# Cond: virus of fourth passage in drug-treated MT-4 cells
pIC50: −log10 of the molar value.
Reported Endpoint: pIC50

Record "Cc1cn([C@H]2C[C@H](N=[N+]=[N-])[C@@H](CO)O2)c(=O)[nH]c1=O" ; system HIV-1 (HXB2); pIC50 = < 4.30
